Here the recorded melting point is given for each entry.

>>> print(df.to_string())
                                   compound      obs_value
0            O=C(O)c1cnn(-c2cccc(Cl)c2)c1Cl  209 to 211 °C
1                        O=c1cc(S)sc2ccoc12       > 245 °C
2  COc1cc2c(cc1OC)C(C)CC(N)C(=O)N2 (stereo not given)         103 °C

// "Cn1c(C(F)(F)F)cc(=O)n(-c2c(F)cc(Cl)c3cc(-c4ccccc4)oc23)c1=O" : melting point value = 215 to 216 °C

// "CCOCC(C)(C)COc1ccc(-c2ccc3c(c2)C=C(C(=O)Nc2ccc(CN(C)C4CCOCC4)cc2)CCS3(=O)=O)cc1" : melting point value = 209 to 210 °C

---

measurement_type: melting point

Some solved cases for reference:
>>> print(df.to_string())
                                   compound      obs_value
0  C=C(COC1CC2C3CCC4=CC(=O)C=CC4(C)C3(F)C(O)CC2(C)C1(O)C(=O)CCl)c1ccccc1 (stereo not given)  212 to 214 °C
1                 CSc1nncc(-c2cccc(Cl)c2)n1    79 to 81 °C
2  CC(O)=C(C(=O)OC(c1ccccc1)c1ccccc1)N1C(=O)C(NC(=O)C(NC(=O)OC(C)(C)C)c2ccccc2)C1SS(=O)(=O)c1ccc(C)cc1 (stereo not given)  182 to 184 °C

// "Cc1noc(NS(=O)(=O)c2c(Cc3ccccc3)sc3ccccc23)c1Br" : melting point value = 120 to 123 °C

// O=S(CCl)c1ccc(-n2cnnn2)cc1 (stereo not given) : melting point value = 147 to 149 °C

// "CCCCCCCCCCc1ccc(C(=O)CCCCC(=O)O)cc1" : melting point value = 84 to 85 °C

// "C=Cc1nc(C#N)c(C#N)n1CC" : melting point value = 66 to 70 °C

// CC(=O)OCC1=CC(=O)C=C2CCC3C4CCC(=O)C4(C)CCC3C21C (stereo not given) : melting point value = 121 to 123 °C

// "CNC(=O)N(C)c1cc(C(C)(C)C)on1" : melting point value = 150 to 151 °C

// CCCCCCCCCCCCCCCCOC[C@@H]1OCC[C@H]1OP(=O)([O-])OCC[N+](C)(C)C (relative stereo) : melting point value = 213 to 223 °C

// "CCCCC(=N)Nc1ccccc1N1CCOCC1" : melting point value = 135 to 136 °C

// "CCn1c(CCO)nc(C(C)C)c1Sc1cc(Cl)cc(Cl)c1" : melting point value = 80 to 81 °C

// "COCCCOc1ccc(/C=C(\OC)C(=O)O)c(Oc2ncc(C(F)(F)F)cc2Cl)c1" : melting point value = 140 to 141 °C

// Cc1ccc(C(=O)N(C)Cc2cccc(-c3ccc(CC4SC(=O)NC4=O)cc3)c2)cc1 (stereo not given) : melting point value = 198 °C

// "Cc1cc(C)c2cc(N)c(=O)[nH]c2n1" : melting point value = 238 to 240 °C

// "c1ccc(CN2CCN(c3onc4c3CCc3ccccc3-4)CC2)cc1" : melting point value = 148 to 149 °C

// COc1cc(C2CCN(CCO)CC2O)ccc1Nc1ncc2ccc(-c3ccccc3OC)n2n1 (stereo not given) : melting point value = 88 to 96 °C

// COC(=O)C1(N(OC2CCCO2)C(=O)Cc2c(C)cc(C)cc2C)CCN(OC)CC1 (stereo not given) : melting point value = 107 to 109 °C

// "O=C(CCl)c1ccc2c(C(=O)CCl)ccc3c2c1CC3" : melting point value = 184 to 187 °C

// Cc1c(N)c(C)c(C(C)C)c2c1CC(C)(CN1CCC(c3ccccc3)CC1)O2 (stereo not given) : melting point value = 128 to 131 °C
